# Species on record: Rattus norvegicus
# EXPERIMENT: Inhibitory concentration on GH release from rat pituitary cells
# Format: functional, cell-based
# REPORTED CONDITIONS: Pituitary gland cell
pIC50: −log10 of the molar value.
# maps each entry to its pIC50

[
  {
    "COMPOUND STRUCTURE STRING": "C[C@H](N)C(=O)NCC(=O)N[C@H]1CSSC[C@@H](C(=O)O)NC(=O)[C@H](CO)NC(=O)[C@H]([C@@H](C)O)NC(=O)[C@H](Cc2ccccc2)NC(=O)[C@H]([C@@H](C)O)NC(=O)[C@H](CCCCN)NC(=O)[C@H](Cc2c[nH]c3ccccc23)NC(=O)[C@H](Cc2ccccc2)NC(=O)[C@H](Cc2ccccc2)NC(=O)[C@H](CC(N)=O)NC(=O)[C@H](CCCCN)NC1=O",
    "pIC50": 10.00
  },
  {
    "COMPOUND STRUCTURE STRING": "CC(C)[C@@H]1NC(=O)[C@H](CCCCN)NC(=O)[C@@H](Cc2c[nH]c3ccccc23)NC(=O)[C@H](Cc2ccc(O)cc2)NC(=O)[C@@H](NC(=O)[C@H](N)Cc2ccc(N)cc2)CSSC[C@@H](C(=O)N[C@@H](CC(=O)O)C(N)=O)NC1=O",
    "pIC50": 7.83
  },
  {
    "COMPOUND STRUCTURE STRING": "CC(C)[C@@H]1NC(=O)[C@H](CCCCN)NC(=O)[C@@H](Cc2c[nH]c3ccccc23)NC(=O)[C@H](Cc2ccc(O)cc2)NC(=O)[C@@H](NC(=O)[C@H](N)Cc2ccccc2)CSSC[C@@H](C(=O)N[C@@H](CC(=O)O)C(N)=O)NC1=O",
    "pIC50": 8.96
  }
]

---

# Species: Rattus norvegicus
# EXPERIMENT: Inhibitory concentration on GH release from rat pituitary cells
# Format: functional, cell-based
# REPORTED CONDITIONS: Pituitary gland cell
pIC50: −log10 of the molar value.
METRIC NAME: pIC50

[
  {
    "COMPOUND STRUCTURE STRING": "CC(C)[C@@H]1NC(=O)[C@H](CCCCN)NC(=O)[C@@H](Cc2c[nH]c3ccccc23)NC(=O)[C@H](Cc2ccc(O)cc2)NC(=O)[C@@H](NC(=O)[C@H](N)Cc2ccc(N)c(I)c2)CSSC[C@@H](C(=O)N[C@H](C(N)=O)[C@@H](C)O)NC1=O",
    "VAL": 10.00
  },
  {
    "COMPOUND STRUCTURE STRING": "CC(C)[C@@H]1NC(=O)[C@H](CCCCN)NC(=O)[C@@H](Cc2c[nH]c3ccccc23)NC(=O)[C@H](Cc2ccc(O)c(I)c2)NC(=O)[C@@H](NC(=O)[C@H](N)Cc2ccc(N)c(I)c2)CSSC[C@@H](C(=O)N[C@H](C(N)=O)[C@@H](C)O)NC1=O",
    "VAL": 9.82
  },
  {
    "COMPOUND STRUCTURE STRING": "CC(C)[C@@H]1NC(=O)[C@H](CCCCN)NC(=O)[C@@H](Cc2c[nH]c3ccccc23)NC(=O)[C@H](Cc2ccc(O)cc2)NC(=O)[C@@H](NC(=O)[C@H](N)Cc2ccc(N)cc2)CSSC[C@@H](C(=O)N[C@H](C(N)=O)[C@@H](C)O)NC1=O",
    "VAL": 10.10
  }
]
